# System: OVCAR-5 ovarian
# assayName: NCI tumour cell line growth inhibition, 48 h; in the data active = GI50 below about 0.43 µM; inactive = the rest
Choose one outcome from this list and give only that: active, inactive

For this compound, state the assay outcome: `CCCCCCCCCCCCCOC(=O)c1c(C)[nH]c(/C=C2\N=C(c3ccc[nH]3)C=C2OC)c1C`
active

Tell me the assay call for `Nc1ncc(-c2cnn(C3CCNCC3)c2)cc1-c1nc2ccccc2o1` please.
inactive

Name the outcome recorded for `C/C(=C\c1ccn(-c2ccc(N)c(C(F)(F)F)c2)n1)[C@@H]1C[C@@H]2O[C@]2(C)CCC[C@H](C)[C@H](O)[C@@H](C)C(=O)C(C)(C)[C@@H](O)CC(=O)O1` in the assay.
active

* * *

# Tested on: SF-539 CNS
# assayName: NCI tumour cell line growth inhibition, 48 h
reportedMetric: TGI

Specify measured TGI for `CN(C)c1ccc(N=Nc2cccc3ccoc23)cc1` .
> 100 µM

Using known records, supply TGI for `CNC(=O)Nc1cc2c3c(c1)CCCN3CCC2`
> 10 µM

Report TGI, nothing else, for this compound: `Nc1ccccc1NC(=O)c1ccc(CSc2nc(N3CCOCC3)c3cccn3n2)cc1`
> 100 µM

Fill in reported TGI for this entry: `CN(C(=O)OC(C)(C)C)[C@H]1CCCC[C@H]1N1CCCC1`
> 100 µM

Name the recorded TGI of the compound listed here: `N#Cc1c(C#N)c(-c2cccc([N+](=O)[O-])c2)n(-c2ccccc2)c1N`
> 100 µM

Could you please provide reported TGI for CC12CN(CC[N+](C)(C)C)CC1(C)C1CCC2O1 (stereo unspecified) ? Thanks!
> 100 µM

* * *

Consider the following molecules; for each one, report its TGI.
# Tested on: OVCAR-4 ovarian
# assayName: NCI tumour cell line growth inhibition, 48 h

Tell me measured TGI for `COc1cc(N2CCC(N3CCN(C)CC3)CC2)ccc1Nc1ncc(Cl)c(Nc2ccccc2P(C)(C)=O)n1` please.
> 47.6 µM

For `COc1ccc(C)c2c1N[C@](C)([C@]1(C)Nc3c(OC)ccc(C)c3C1=O)C2=O` , write its TGI.
> 100 µM

Provide measured TGI value, entry: `CC(=O)N1NC(c2ccccc2)=CC(=O)/C1=C/C(=O)c1ccccc1`
> 100 µM

Given the molecule `COc1ccc(-c2coc3ncnc(N)c23)cc1` , write its reported TGI.
> 25 µM

Indicate the recorded TGI value for this molecule: CC12CN(CC[N+](C)(C)C)CC1(C)C1CCC2O1 (stereo not drawn)
> 100 µM

Give recorded TGI. COc1ccccc1C1C2=C(COC2=O)OC(C)(C)Oc2cc3c(cc21)OCO3 (stereo not drawn)
> 100 µM

Identify measured TGI corresponding to `Nc1ncc(-c2cnn(C3CCNCC3)c2)cc1-c1nc2ccccc2o1`
3.53 µM

Give the reported TGI for this molecule. CCCCCCCC/C=C\CCCCCCCCNc1ccn(C2OC(COP(=O)(O)OC3CC(n4cc(F)c(=O)[nH]c4=O)OC3CO)C(O)C2O)c(=O)n1 (stereo not drawn)
> 100 µM

Return TGI for the following molecule: `O=C(O)C(=O)Cc1ccc2c(c1)OCO2`
> 100 µM

Answer with the recorded TGI for the molecule listed here: `COc1ccc(C(=O)/C=C/c2cc3ccccc3[nH]c2=O)cc1`
> 100 µM

Using known records, supply TGI for `Cc1cc(Cl)ccc1Nc1sc(C(=O)c2cc3cc(Cl)ccc3o2)c(N)c1C#N`
25.1 µM

// fetch TGI given entry c1ccc(N/N=C2\CC(c3ccccc3)Oc3ccccc32)cc1 (stereo not drawn)
> 100 µM

Return TGI for the following molecule: `C=C1C(=O)O[C@@H]2[C@H]1CC[C@H](C)[C@]1(O)CCC(=O)[C@@]21C`
> 10 µM

Provide TGI value for the following molecule: CCC1CCc2nc3sc(C(=O)Nc4ccccc4F)c(N)c3cc2C1 (stereo not drawn)
> 100 µM

Supply recorded TGI for `N#CN=Nc1cc(Cl)c(N=NC#N)cc1Cl` here.
> 100 µM

Look up and report measured TGI for this entry: `COc1cc2[nH]c(C(=O)c3cc(OC)c(OC)c(OC)c3)c(N)c2cc1C#CCO`
> 100 µM

Consider the molecule `CN1CCN(C(=O)c2ccc(NC(=O)Nc3ccc(N(C)c4ccnc(Nc5ccc(CS(C)(=O)=O)cc5)n4)cc3)cc2)CC1` and give its recorded TGI.
> 25 µM

Determine from records and report TGI for `COC(=O)c1cc(Br)c(C(=O)C(Cl)(Cl)Cl)[nH]1`
> 100 µM

Annotate the molecule C=C(Cl)C(C)(Cl)CCC(Cl)C(C)(C)Cl (stereo not drawn) with its measured TGI.
> 100 µM

State its TGI: `O=c1c2cccnc2[nH]c2ccc3scnc3c12`
> 10 µM

Find the measured TGI of `O=C1C(=O)c2cc([N+](=O)[O-])ccc2-c2ccccc21` and report it.
2.66 µM

Identify measured TGI corresponding to `Cc1cc(C)c(C(=O)O)c(N)c1O`
> 100 µM

For the molecule `CCN(Cc1ccc(F)cc1)c1ccc(CO)c(Cl)c1` , give its reported TGI.
7.48 µM
